These data points were gathered from PubChem BioAssay (NCI).

Test system: SK-MEL-28 melanoma
Test: NCI-60 one-dose screen, 48 h
Settings: 10 µM unless noted
About 83,000 compounds went through this panel and 20% of them were active in at least one assay; those are over-represented in the sample as a whole. Activity calls are given as the source filed them. How the source made its calls: active means growth percent below 10; inactive means the rest.
Outcomes: active, inactive

COc1ccc(-c2cc3c4c(nc5ccccc5c4c2)CC(c2cc(OC)c(OC)c(OC)c2)O3)cc1 (stereo not given) = inactive
Cc1nc2ccccc2c(/C=C/c2ccccc2)c1C(=O)/C=C/c1ccc(C(F)(F)F)cc1 = active
Cc1cc2nc3cc(C)c(N)cc3[n+](-c3ccccc3)c2cc1N = inactive
Nc1nc(Cl)cc(=O)n1Cc1ccccc1 = inactive
COc1cccc(-c2nn(-c3ccccc3)cc2-c2ccnc(N3CCOCC3)c2)c1 = inactive
Cc1cc(C)c(-c2c(N)cc(Br)cc2Br)c(N)c1 = inactive
O=C1CSC(c2c(Cl)cccc2Cl)N1c1nc(Cl)cc(=O)[nH]1 (stereo not given) = inactive
CCOC(=O)c1c(C)oc2ncnc(N3CCN(C(=O)COc4ccc(C(C)(C)C)cc4)CC3)c12 = inactive
COc1ccc(C2CC(c3ccc(Nc4nc(Nc5ccc(F)cc5)nc(Nc5ccc(Cl)cc5)n4)cc3)=NN2C(C)=O)cc1 (stereo not given) = inactive
C[N+]1=C(/C=C/c2ccc(O)c3ncccc23)C(C)(C)c2ccccc21 = inactive

----------
System: OVCAR-8 ovarian
Assay: NCI-60 one-dose screen, 48 h (100 = growth as untreated, 0 = no growth, -100 = all killed)
Conditions: 10 µM unless noted
The panel holds about 83,000 compounds, 20% with a hit somewhere; the sample as a whole holds those more often. Calls of active or inactive are those of the source. The calls were made as follows: active = growth percent below 10; inactive = the rest.
outcome_measure: growth

Nc1nc(Cl)cc(=O)n1Cc1ccccc1 = 92.1% (inactive)
O=C(CCc1nnc(-c2c(Cl)cccc2Cl)o1)c1nc2ccccc2[nH]1 = 57.2% (inactive)
N#CC1=C(N)Oc2c(sc3c(Br)cccc23)C1c1ccc(Br)cc1 (stereo unspecified) = 36.1% (inactive)
CNc1ccc(Nc2cccc(C)c2)c2c1C(=O)c1ccccc1C2=O = 99.6% (inactive)
NC1=NC(c2cccc(Br)c2)c2sc3ccc(Cl)cc3c2N1 (stereo unspecified) = 102% (inactive)
COc1cc(CCCO)c(OC)c(OC)c1OC = 107% (inactive)
CC(=O)c1ccc(Nc2nc(C(C)=O)c(C)s2)cc1 = 102% (inactive)
Cc1cccc(OCC(O)CN2CCN(c3ccc(Cl)cc3)CC2)c1 (stereo unspecified) = 94.9% (inactive)
O=C(N/N=C/[C@H](O)[C@H](O)[C@H](O)CO)c1ccc(NC(=O)c2cccnc2)cc1 = 102% (inactive)
N#Cc1c(-c2ccc(Cl)cc2)nc(NCCO)[nH]c1=O = 103% (inactive)
CCc1ccccc1-n1c(N)c(C#N)c(-c2ccc(Cl)cc2)c(C#N)c1=O = 111% (inactive)

----------
Test system: M14 melanoma
Test: NCI-60 one-dose screen, 48 h
Conditions: 10 µM unless noted
The panel holds about 83,000 compounds, 20% with a hit somewhere; the sample as a whole holds those more often. Active and inactive are the calls of the source. How the source made its calls: active means growth percent below 10; inactive means the rest.
Possible outcomes: Yes for active, No for inactive

N#Cc1c(-c2ccc(Cl)cc2)nc2c(c(-c3ccccc3)nn2-c2ccccc2)c1-c1ccc(O)cc1 = No
CC/C=C\C[C@@H](O)C/C=C1/C(=O)C=C[C@H]1C/C=C\CCCC(=O)OC = Yes
Cc1ccc(C(=O)NCCNc2nccc(-c3c(-c4cccc(F)c4)nc4sccn34)n2)cc1 = No
CCCCn1c(=O)c(-c2cc(-c3ccc(Cl)cc3)nc(-c3ccc(Cl)cc3)c2)cc2ccc(Cl)cc21 = No
CC1=C(C)C(=O)C(Nc2cccc(C(=O)OC(C)(C)C)c2)=C(Br)C1=O = No
COc1cc(Nc2cn[nH]c2-c2ccc(Cl)cc2)cc(OC)c1OC = Yes
CCOC(=O)CC1C(COC(=O)NC)OC(n2cnc3c(NC(=O)Nc4ccccc4)ncnc32)C1O[Si](C)(C)C(C)(C)C (stereo not drawn) = No
O=C(Cc1ccc(F)c(Cl)c1)Nc1cc(C2(C(F)(F)F)CC2)nn1Cc1ccccc1 = No
CCN(CC)S(=O)(=O)c1ccc(NC(=O)CSc2nnc(C)n2-c2ccccc2)cc1 = No
Cc1ccc(-c2nc(N3CCN(C(=O)Nc4ccc(Cl)c(C(F)(F)F)c4)CC3)c3ccccc3n2)cc1 = No
O=C(CCN1C(=O)/C(=C/c2ccc(O)cc2)SC1=S)Nc1ccccc1 = No
O=C(Cc1ccc2c(c1)OCCO2)Nc1nc2ccc(F)cc2s1 = No
COc1ccc(C2NC(=O)C(C#N)c3c2sc2c(F)cccc32)c(OC)c1 (stereo not drawn) = No
NCCNc1nc2ccccc2c2c(=O)c3cccc(F)c3sc12 = No
CN(C)c1ccc2nc3ccc(=[N+](C)C)c([N+](=O)[O-])c-3sc2c1 = Yes
NS(=O)(=O)c1ccc(-n2nc(C(=O)N/N=C\c3ccc(F)cc3)cc2-c2ccc(Br)cc2)cc1 = No
CCc1ccc(Oc2c(-c3ccc(OCc4ccc(Cl)cc4)cc3O)n[nH]c2C(F)(F)F)cc1 = No
COc1cc2cc(Oc3ccc(NC(=O)Nc4cccc(C(F)(F)F)c4)cc3)c(C)nc2cc1OCCN1CCOCC1 = No
CN1C(=O)CNC(=O)[C@H](NC(=O)c2nc3ccccc3cc2O)CSSC[C@H]1C(=O)NCCc1nc2ccccc2cc1O = Yes
CNC(=O)c1[nH]cc(-c2ccccc2)c1-c1cc(OC)c2c(c1OC)OCO2 = No
Cc1ccc2c(n1)C(=O)C(Cl)=C(Nc1ccccc1C(C)C)C2=O = No
c1ccc(Nc2cc(-c3cccnc3)[nH]n2)cc1 = No
CCCCn1c(=O)c(-c2cc(-c3ccc(Cl)cc3)nc(-c3ccc(Cl)cc3)c2)cc2cc(Cl)ccc21 = No
CC1=C(SCCC(=O)OC(C[Se]C2=C(C)C(=O)c3ccccc3C2=O)C(=O)NC(C)(C)C)C(=O)c2ccccc2C1=O (stereo not drawn) = Yes
Cc1ccc(-c2nc(N3CCN(CC(=O)Nc4ccc(Cl)c(C(F)(F)F)c4)CC3)c3ccccc3n2)cc1 = No
CCC(=O)Nc1ccc(-c2nc(-c3cccc(OC)c3)c(-c3ccnc(Br)c3)[nH]2)cc1 = No
CNC(C)[C@H]1CCC2C3CCC4C[C@@H](N(C)C(=O)c5ccccc5)CC[C@]4(C)C3CC[C@@]21C (stereo partly drawn) = Yes
CC(C)n1cnc2c(Nc3cccc(Cl)c3)nc(N[C@H]3CCCC[C@@H]3N)nc21 = No
C#Cc1cccc(NC(=O)Nc2ccccc2NC(=O)CCl)c1 = Yes
[O-][n+]1c2ccccc2[n+]([O-])c2c3ccccc3[nH]c21 = No
O=C(CCN1C(=O)/C(=C/c2ccc(O)cc2)SC1=S)Nc1ccc(Cl)cc1 = No
CC(=O)CC(c1cccs1)c1c(-c2ccccc2)[nH]c2ccccc12 (stereo not drawn) = No
COc1nc2ccccc2cc1-c1nc2c(cnn2-c2ccccc2)c(=O)[nH]1 = No
O=c1ccn(Cc2cn(-c3c4ccccc4nc4ccccc34)nn2)c(=O)[nH]1 = No
Cn1cc(-c2cc3ncnc(Nc4ccc(CC(=O)Nc5cc(C(C)(C)C)nn5C)cc4)c3s2)cn1 = No
N[C@@H](Cc1ccccc1)[C@@H](O)C(=O)NCc1ccc(F)cc1 = No
O=C1CN(CCN2CC(=O)N(Cc3ccccc3)C(=O)C2)CC(=O)N1Cc1ccccc1 = No
N#Cc1c(-c2ccc(Cl)cc2)nc(NCCO)[nH]c1=O = No
